Target: C-terminal domain (CTD) of human STING (Homo sapiens)
Sequence (Q86WV6 155-379): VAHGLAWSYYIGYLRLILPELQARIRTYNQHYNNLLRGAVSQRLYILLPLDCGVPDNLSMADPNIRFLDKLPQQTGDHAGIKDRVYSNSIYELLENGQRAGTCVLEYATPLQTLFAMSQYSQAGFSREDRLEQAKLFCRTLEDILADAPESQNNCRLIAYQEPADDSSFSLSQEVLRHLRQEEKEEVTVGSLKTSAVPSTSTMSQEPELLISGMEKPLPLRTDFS
Experiment: STING binding FP assay II (as FP assay I, lower STING concentration)
Design: recombinant human STING protein (155-379)
Details: 7 nM STING in buffer A, 4 nM fluorescein-labelled STING ligand (Probe 1)
quantity: IC50 (nM)
Kindly answer with a numeric value in nM, unit omitted.

// worked examples, IC50 included
molecule	quantity	test value
CCn1nc(C)cc1C(=O)N=c1n(C)c2cc(C(N)=O)ccc2n1CCC(CCn1c(=NC(=O)c2cc(C)nn2CC)n(C)c2cc(C(N)=O)ccc21)OCC(=O)N1CCC[C@H]1c1cccc(OC)c1 (stereo partly shown)	IC50	2
CCn1nc(C)cc1C(=O)N=c1n(C)c2cc(C(N)=O)ccc2n1CCC(CCn1c(=NC(=O)c2cc(C)nn2CC)n(C)c2cc(C(N)=O)ccc21)OCC(=O)N(CCOC)CCOC (stereo not shown)	IC50	2

State, in one line, measured IC50 of CCn1nc(C)cc1C(=O)N=c1n(C)c2cc(C(N)=O)ccc2n1CCC(CCn1c(=NC(=O)c2cc(C)nn2CC)n(C)c2cc(C(N)=O)ccc21)OCC(=O)n1nc(C)cc1N (stereo not shown) 4.8

State, in one line, measured IC50 of CCn1nc(C)cc1C(=O)N=c1n(C)c2cc(C(N)=O)ccc2n1CCC(CCn1c(=NC(=O)c2cc(C)nn2CC)n(C)c2cc(C(N)=O)ccc21)OCC(=O)N(C(C)C)C(C)C (stereo not shown) 4.8
